- experimental.details: Acute toxicity (LD50), ICR-JCL female mice, Litchfield-Wilcoxon graph method
- test.settings: mouse, in vivo, ip, one dose, in olive oil, after 7 days
experimental.endpoint: LD50 at 168 h (mg/kg)
Field: numeric (mg/kg). Do not append units.

compound	readout.units	LD50 at 168 h
O=NN(CCCl)C(=O)N[C@H]1C(O)O[C@H](CO)[C@@H](O)[C@@H]1O (stereo partly drawn) [Test No. 1 (Table 18), reference compound]	mg/kg	48

Please find the next compound below.
// query Query: LD50 at 168 h; subject: CN(Cc1cnc2nc(N)nc(N)c2n1)c1ccc(C(=O)N[C@@H](CCC(=O)O)C(=O)O)cc1 [Test No. 12 (Table 18), 4-amino-N^10 --methylpteroyl glutamate, reference compound]
// result 94

* * *

As shown below, each of these molecules has a reported LD50 at 168 h value.
- experimental.details: Acute toxicity (LD50), ICR-JCL female mice, Litchfield-Wilcoxon graph method
- test.settings: mouse, in vivo, ip, one dose, in olive oil, after 7 days

Previously resolved entries follow.
line.notation	LD50 at 168 h
CO[C@H]1O[C@H](C(=O)OCC(=O)O[C@H]2CC[C@H]3[C@@H]4CCc5cc(O)ccc5[C@H]4CC[C@]23C)[C@@H](O)[C@H](O)[C@H]1NC(=O)N(CCCl)N=O	> 180 mg/kg
CN(Cc1cnc2nc(N)nc(N)c2n1)c1ccc(C(=O)N[C@@H](CCC(=O)OCC(=O)O[C@H]2CC[C@H]3[C@@H]4CCc5cc(O)ccc5[C@H]4CC[C@]23C)C(=O)OCC(=O)O[C@H]2CC[C@H]3[C@@H]4CCc5cc(O)ccc5[C@H]4CC[C@]23C)cc1	> 235 mg/kg
C[C@]12CC[C@@H]3c4ccc(OC(=O)c5ccccc5)cc4CC[C@H]3[C@@H]1CC[C@@H]2OC(=O)COCCNc1nc(N2CC2)nc(N2CC2)n1	> 15 mg/kg
COc1cccc2c1C(=O)c1c(O)c3c(c(O)c1C2=O)C[C@@](O)(C(C)=O)C[C@@H]3O[C@H]1C[C@H](NCC(=O)O[C@H]2CC[C@H]3[C@@H]4CCc5cc(O)ccc5[C@H]4CC[C@]23C)[C@H](O)[C@H](C)O1	> 15 mg/kg

Please find the next molecule below.
// query Query: LD50 at 168 h; subject: C[C@]12CC[C@@H]3c4ccc(O)cc4CC[C@H]3[C@@H]1CC[C@@H]2OC(=O)Cn1cc(F)c(=O)[nH]c1=O
// result > 605 mg/kg
